For each record, write down the corresponding EC50.
Tested on: haematopoietic & lymphoid tumors (13 cell lines)
Assay: CellTiter-Glo Viability Assay, haematopoietic & lymphoid tumors
Type: cell-based
Conditions: Homo sapiens, DND41; DND-41 cell line; inhibition of cancer cell proliferation; read-out: Haematopoietic & Lymphoid tumors, EC50 (μM) DND-41
Numbers only, in µM.

> print(dat)
                                 cpd.smiles  reported.metric  endpoint.unit  number
1  Cc1ncc(C(=O)Nc2cc3nc(-c4cnc(C)n4C)ccc3cn2)s1             EC50             µM   0.288
2  CC(C)CC(=O)Nc1cncc(-c2ccc3[nH]nc(-c4cc5c(N6CCCCC6)cncc5[nH]4)c3c2)c1             EC50             µM   0.258

## Task # query: EC50 of entry CN(C)Cc1cncc(-c2ccc3[nH]nc(-c4cc5c(-c6ccoc6)ccnc5[nH]4)c3c2)c1
## Result 0.853
